- experimental target: T1, human CD8αα homodimer, recombinant protein (Acro Biosystems) (human, UniProt P01732 22-182)
- T1 construct: also called CD8αα antigen; biotinylated CD8α recombinant protein (CDA-H82E3)
- T1 sequence (P01732 22-182 limits assumed): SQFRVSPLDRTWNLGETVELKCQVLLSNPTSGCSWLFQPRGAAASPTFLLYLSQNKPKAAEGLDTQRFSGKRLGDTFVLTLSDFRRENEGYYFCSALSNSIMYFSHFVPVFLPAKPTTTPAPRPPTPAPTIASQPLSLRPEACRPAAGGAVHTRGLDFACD
- test: BLI steady state, whole hIgG1-LALAPA antibody on CD8α-His (Ni-NTA sensor), 30 °C
measurement type: pKd
// pKd is dimensionless: -log10 of concentration (M)

Input line: Could you tell me which pKd is on file for CBD1040 whole antibody, Fc-silenced human IgG1 (LALAPA) (antibody, V domains shown) VH: QVQLVQSGAEVKKPGASVKISCKASRYTFTDYNLHWVRQAPGQGLEWIGFIYPYNGGTGYAQKFQGRATLTVDYSTSTAYMELSSLRSEDTAVYYCARDHRYNEGVSFDYWGQGTTLTVSS VL: DIQLTQSPSSLSASVGDRATITCRASESVDGFGNSFMNWYQQKPGKAPKLLIYLASNLESGVPSRFSGSGSRTDFTLTISSVQPEDFATYYCQQNNEDPYTFGQGTKLEIKR ?
Output line: 8.39

Input line: Could you tell me which pKd is on file for CBD1017ch whole antibody (chimeric CT8 antibody) (antibody, V domains shown, Chimeric antibody comprising the variable regions of the donor antibody CT8; detected with anti-human Fc) VH: EVQLQQSGPELVKPGASVKISCKASRYTFTDYNLHWVKLSHEKSLEWIGFIYPYNGGTGYNQKFKNKAKLTVDYSSSTAYMELRSLTSVDAAVYYCARDHRYNEGVSFDYWGQGTTLTVSS VL: NIVLTQSPASLAVSLGQRATISCRASESVDGFGNSFMNWYQQKPGQSPKLLIYLASNLESGVPARFSGSGSRTDFTLTIDPVEADDAATYYCQQNNEDPYTFGGGTKLEIK ?
Output line: 9.24

Input line: Could you tell me which pKd is on file for CBD1033 whole antibody, human IgG1 with Fc-silencing mutations L234A, L235A and P329A (CBD1033-hIgG1-LALAPA) (antibody, V domains shown, On tLNPs the antibody was SATA-modified or AJICAP-thiolated (CBD1033.29) and conjugated to the LNP; also called CBD1033.3; CBD1033 IgG1) VH: QVQLVQSGAEVKKPGASVKVSCKASRYTFTDYNLHWVRQAPGQGLEWMGFIYPYNGGTGYAQKFQGRVTMTVDTSTSTAYMELSSLRSEDTAVYYCARDHRYNEGVSFDYWGQGTTVTVSS VL: DIQLTQSPSSLSASVGDRATITCRASESVDGFGNSFMNWYQQKPGKAPKLLIYLASNLESGVPSRFSGSGSGTDFTLTISSVQPEDFATYYCQQNNEDPYTFGQGTKLEIKR ?
Output line: 8.64
